# tested.system: recombinant active human PAI-1 (Homo sapiens, UniProt P05121)
# Sequence (P05121 24-402): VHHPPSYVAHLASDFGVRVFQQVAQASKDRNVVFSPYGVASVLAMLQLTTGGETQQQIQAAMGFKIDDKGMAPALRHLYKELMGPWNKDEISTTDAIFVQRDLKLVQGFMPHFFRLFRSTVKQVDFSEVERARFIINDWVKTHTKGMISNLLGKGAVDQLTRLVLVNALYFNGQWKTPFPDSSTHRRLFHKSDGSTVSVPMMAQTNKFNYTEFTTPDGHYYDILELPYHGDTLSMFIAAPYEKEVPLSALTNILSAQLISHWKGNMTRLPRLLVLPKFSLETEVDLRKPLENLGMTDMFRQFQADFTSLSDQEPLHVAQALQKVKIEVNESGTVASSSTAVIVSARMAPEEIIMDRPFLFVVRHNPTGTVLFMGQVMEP
# procedure.text: Inhibition of the activity of PAI-1 in vitro (fibrin clot breakdown, turbidity)
# particulars: absorbance two hours after start of fibrin formation, 50 mM phosphate buffer pH 7.4, tissue plasminogen activator, fibrinogen, thrombin, read-out: IC50 (concentration of product that inhibits PAI-1 activity by 50%)
# Protocol: Inhibition of the activity of PAI-1 was effected in vitro in microplate wells in which the formation and then breakdown of a fibrin clot is monitored continuously by measurement of its turbidity using a spectrophotometer. […] In the absence of the product and of PAI-1, breakdown is measured by the absorbance of the broken-down clot and represents 0% of the PAI-1 activity. […]
pIC50: −log10 of the molar value.
Each entry below carries its reported pIC50.
reported.endpoint: pIC50

O=C(O)/C(=C/c1sc2cc(OCc3ccc(-c4ccccc4)cc3)c(OCc3ccc(-c4ccccc4)cc3)cc2c1Oc1cccnc1)c1ccncc1 ... 6.28
O=C(O)/C(=C/c1sc2cc(OCc3ccc(-c4ccccc4)cc3)c(OCc3ccc(-c4ccccc4)cc3)cc2c1Oc1ccc(Cl)cc1)c1ccncc1 ... 6.89
O=C(O)/C(=C/c1sc2cc(OCc3ccc(-c4ccccc4)cc3)c(OCc3ccc(-c4ccccc4)cc3)cc2c1Oc1ccccc1)c1ccncc1 ... 7.22
